test-summary: Solubility ratio of prodrug versus parent drug
Format: physicochemical
Classify as follows. Reported Solubility ratio greater than or equal to 300: T. Reported Solubility ratio below: F.

-- ask Given CC(C)(C)NC(=O)[C@H]1N(C(=O)[C@@H](OC(=O)c2ccc(Cl)cc2)[C@@H](N)Cc2ccccc2)CSC1(C)C.Cl , state whether its Solubility ratio is at least 300.
-- reply F

-- ask Given COc1ccc(C(=O)O[C@H](C(=O)N2CSC(C)(C)[C@H]2C(=O)NC(C)(C)C)[C@@H](N)Cc2ccccc2)cc1.Cl , state whether its Solubility ratio is at least 300.
-- reply F

-- ask Given CC(C)(C)NC(=O)[C@H]1N(C(=O)[C@@H](OC(=O)c2ccc([N+](=O)[O-])cc2)[C@@H](N)Cc2ccccc2)CSC1(C)C.Cl , state whether its Solubility ratio is at least 300.
-- reply F

-- ask Given CC(C)(C)NC(=O)[C@H]1N(C(=O)[C@@H](OC(=O)c2ccccc2)[C@@H](N)Cc2ccccc2)CSC1(C)C.Cl , state whether its Solubility ratio is at least 300.
-- reply F

-- ask Given Cc1ccc(C(=O)O[C@H](C(=O)N2CSC(C)(C)[C@H]2C(=O)NC(C)(C)C)[C@@H](N)Cc2ccccc2)cc1.Cl , state whether its Solubility ratio is at least 300.
-- reply F

---

test-summary: Dissociation constant was determined
Assay type: physicochemical
Catalogue of compounds with associated pKa

>>> observed_result("CC(C)(C)NC(=O)[C@H]1N(C(=O)[C@@H](OC(=O)c2ccccc2)[C@@H](N)Cc2ccccc2)CSC1(C)C.Cl")
4.2
>>> observed_result("CC(C)(C)NC(=O)[C@H]1N(C(=O)[C@@H](OC(=O)Cc2ccccc2)[C@@H](N)Cc2ccccc2)CSC1(C)C.Cl")
4.31

As a next step, examine the compound that follows.
-- ask Could you share which pKa value was measured for CC(C)(C)NC(=O)[C@H]1N(C(=O)[C@@H](OC(=O)OCc2ccccc2)[C@@H](N)Cc2ccccc2)CSC1(C)C.Cl ?
-- reply 3.2

---

Catalogue of compounds with associated T1/2
test-summary: Time required for 50% release of parent drug in phosphate buffered saline (PBS) at 37 degrees Centigrade
Assay type: ADME
condition-parameters: buffer
Answer with a number only, understood to be in min.

Here's what some known entries look like.
>>> observed_result("COc1ccc(C(=O)O[C@H](C(=O)N2CSC(C)(C)[C@H]2C(=O)NC(C)(C)C)[C@@H](N)Cc2ccccc2)cc1.Cl")
67
>>> observed_result("Cc1ccc(C(=O)O[C@H](C(=O)N2CSC(C)(C)[C@H]2C(=O)NC(C)(C)C)[C@@H](N)Cc2ccccc2)cc1.Cl")
44

-- ask Could you share which T1/2 value was measured for CC(C)(C)NC(=O)[C@H]1N(C(=O)[C@@H](OC(=O)c2ccc(Cl)cc2)[C@@H](N)Cc2ccccc2)CSC1(C)C.Cl ?
-- reply 16

---

Catalogue of compounds with associated T1/2
test-summary: Time required for 50% release of parent drug in phosphate buffered saline (PBS) at 37 degrees Centigrade
Format: ADME
condition-parameters: buffer

Here's what some known entries look like.
>>> observed_result("CC(C)(C)NC(=O)[C@H]1N(C(=O)[C@@H](OC(=O)c2ccccc2)[C@@H](N)Cc2ccccc2)CSC1(C)C.Cl")
"30 min"
>>> observed_result("CC(C)(C)NC(=O)[C@H]1N(C(=O)[C@@H](OC(=O)c2ccc([N+](=O)[O-])cc2)[C@@H](N)Cc2ccccc2)CSC1(C)C.Cl")
"2.6 min"
>>> observed_result("CC(C)(C)NC(=O)[C@H]1N(C(=O)[C@@H](OC(=O)Cc2ccccc2)[C@@H](N)Cc2ccccc2)CSC1(C)C.Cl")
"2.2 min"

As a next step, examine the compound that follows.
-- ask Could you share which T1/2 value was measured for CC(C)(C)NC(=O)[C@H]1N(C(=O)[C@@H](OC(=O)OCc2ccccc2)[C@@H](N)Cc2ccccc2)CSC1(C)C.Cl ?
-- reply < 1 min

---

test-summary: physchem
Classify as follows. Reported solubility greater than or equal to 100 µg/mL: 1 (yes). Reported solubility below: 0 (no).

Known results for compounds:
>>> assigned_category("COc1ccc(C(=O)O[C@H](C(=O)N2CSC(C)(C)[C@H]2C(=O)NC(C)(C)C)[C@@H](N)Cc2ccccc2)cc1.Cl")
"1 (yes)"
>>> assigned_category("CC(C)(C)NC(=O)[C@H]1N(C(=O)[C@@H](OC(=O)c2ccc(Cl)cc2)[C@@H](N)Cc2ccccc2)CSC1(C)C.Cl")
"1 (yes)"
>>> assigned_category("COc1ccc(C(=O)N[C@@H](Cc2ccccc2)[C@H](O)C(=O)N2CSC(C)(C)[C@H]2C(=O)NC(C)(C)C)cc1")
"0 (no)"
>>> assigned_category("CC(C)(C)NC(=O)[C@H]1N(C(=O)[C@@H](O)[C@H](Cc2ccccc2)NC(=O)c2ccc([N+](=O)[O-])cc2)CSC1(C)C")
"0 (no)"

-- ask Given CC(C)(C)NC(=O)[C@H]1N(C(=O)[C@@H](O)[C@H](Cc2ccccc2)NC(=O)OCc2ccccc2)CSC1(C)C , state whether its solubility is at least 100 µg/mL.
-- reply 0 (no)

-- ask Given CC(C)(C)NC(=O)[C@H]1N(C(=O)[C@@H](OC(=O)Cc2ccccc2)[C@@H](N)Cc2ccccc2)CSC1(C)C.Cl , state whether its solubility is at least 100 µg/mL.
-- reply 1 (yes)

---

test-summary: physchem
Catalogue of compounds with associated solubility
Answer with a number only, understood to be in mg/mL.

Here's what some known entries look like.
>>> observed_result("CC(C)(C)NC(=O)[C@H]1N(C(=O)[C@@H](OC(=O)c2ccc([N+](=O)[O-])cc2)[C@@H](N)Cc2ccccc2)CSC1(C)C.Cl")
13
>>> observed_result("CC(C)(C)NC(=O)[C@H]1N(C(=O)[C@@H](O)[C@H](Cc2ccccc2)NC(=O)c2ccccc2)CSC1(C)C")
0.12
>>> observed_result("Cc1cccc(C)c1OCC(=O)O[C@H](C(=O)N1CSC(C)(C)[C@H]1C(=O)NC(C)(C)C)[C@@H](N)Cc1ccccc1.Cl")
13
>>> observed_result("CC(C)(C)NC(=O)[C@H]1N(C(=O)[C@@H](OC(=O)OCc2ccccc2)[C@@H](N)Cc2ccccc2)CSC1(C)C.Cl")
21
>>> observed_result("CC(C)(C)NC(=O)[C@H]1N(C(=O)[C@@H](OC(=O)c2ccccc2)[C@@H](N)Cc2ccccc2)CSC1(C)C.Cl")
15

-- ask Could you share which solubility value was measured for Cc1ccc(C(=O)O[C@H](C(=O)N2CSC(C)(C)[C@H]2C(=O)NC(C)(C)C)[C@@H](N)Cc2ccccc2)cc1.Cl ?
-- reply 6.2

-- ask Could you share which solubility value was measured for CC(C)(C)NC(=O)[C@H]1N(C(=O)[C@@H](O)[C@H](Cc2ccccc2)NC(=O)c2ccc(Cl)cc2)CSC1(C)C ?
-- reply 0.028

---

test-summary: Solubility ratio of prodrug versus parent drug
Format: physicochemical
attribute-measured: Solubility ratio
Reply with just the number.

>>> observed_result("Cc1cccc(C)c1OCC(=O)O[C@H](C(=O)N1CSC(C)(C)[C@H]1C(=O)NC(C)(C)C)[C@@H](N)Cc1ccccc1.Cl")
8666
>>> observed_result("CC(C)(C)NC(=O)[C@H]1N(C(=O)[C@@H](OC(=O)OCc2ccccc2)[C@@H](N)Cc2ccccc2)CSC1(C)C.Cl")
449

As a next step, examine the molecule that follows.
-- ask Could you share which Solubility ratio value was measured for CC(C)(C)NC(=O)[C@H]1N(C(=O)[C@@H](OC(=O)Cc2ccccc2)[C@@H](N)Cc2ccccc2)CSC1(C)C.Cl ?
-- reply 340
